Test system: MS2 coat protein
assay: apparent KD of MS2 coat protein; designed switch direction (-1 OFF switch, 1 ON switch): 1; higher = weaker reporter binding
study.conditions: input ligand: microRNA oligo, concentration not stated
Mark YES for reported apparent KD of MS2 coat protein of 30 nM or greater; mark NO for anything smaller.

| input.sequence | system.under.test | label.class |
| --- | --- | --- |
| GUGAAGAAUUAAGGAUAUCGAGUCAAGAUGUUAAACAUGAGGAUCACCCAUGUGGGUUGCGGUAUCGAGAAGGUAAAUUACGGG [salish99_SSNG2_r04_503] (Eterna round: R96, puzzle: Same State NG 2) | MS2 coat protein | NO |
| ACUCGGCAGAUAGGAUAUCCUGCAUGGAUAGUAGGAGAAGGAUCGUGCGCACAUGAGGAUCACCCAUGUGCCAAAUAAUAACAA [Reatedor] (Eterna round: R96, puzzle: Same State NG 1) | MS2 coat protein | NO |
| AUUAAUUAAUUAAUACAUGAGGAUCACCCAUGUAAUAAGAUCAAGGAUAUCAGCUCGAAUAGAGCUGAGAAGGUGAUCACAUGU [SSNG3/17-B1] (Eterna round: R96, puzzle: Same State NG 3) | MS2 coat protein | YES |
| GCGAAGAGGUAAGGAUAUUCAUGGCGGAGACAUGAGGAUCACCCAUGUAGGAGACGAAAUCAAAGGGAGAAGGUACCAGGACGC [AK SSNG2-V2-15] (Eterna round: R96, puzzle: Same State NG 2) | MS2 coat protein | YES |
| GUGGUCAGACAUGAGGAUCACCCAUGUGGAAUAAAUAACAGACAGGAUAUUAAAUAUAGGAUAUAUAAGAAGGGUCGAUUGGUG (Eterna round: R96, puzzle: Same State NG 3) | MS2 coat protein | YES |
| GCUACAUGAGGAUCACCCAUGUGUGUGUGGGAGUGAGUGGCUUAGGAUAUCUAUGAUUUUAGUUGAGAGAAGGAGGAUUGCUGU [SS-NG3-LRO09] (Eterna round: R96, puzzle: Same State NG 3) | MS2 coat protein | YES |
| GGUCGGACAAAACAUGAGGAUCACCCAUGUCCGGAAACGGCAUAGGAUAUCUGUCCGAAAAGGUCAGAGAAGGGUGAACCGACC [Fiskers NG3ss - 70] (Eterna round: R96, puzzle: Same State NG 3) | MS2 coat protein | NO |
| UUAGUCAUGUAAGGAUAUGCAGCCGUUUCGGCUGCAGAAGGUACUAUAAUUACAUGAGGAUCACCCAUGUUAUAAAAUUUAUAU [JL SSNG1 1.24] (Eterna round: R96, puzzle: Same State NG 1) | MS2 coat protein | NO |
| GGCGAACAGGCUAACAUGAGGAUCACCCAUGUGGACUCAUGUUAGGAUAUCGGGAAGGAGGAAACCGAGAAGGGACGGUGAGCC [AK SSNG3-V2-47] (Eterna round: R96, puzzle: Same State NG 3) | MS2 coat protein | NO |

---

Quick reference for apparent KD of K4 kissing-loop reporter among some sequences
Tested on: K4 kissing-loop RNA reporter;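 note: bound reporter read as fluorescence of individual clusters on recovered sequencing chips by microscopy, with normalized cluster intensities fitted with a binding model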
assay: apparent KD of K4 kissing-loop reporter; higher = weaker reporter binding
study.conditions: Eterna round: R107; input ligand: theophylline 20 uM

| input.sequence | system.under.test | apparent KD of K4 kissing-loop reporter, nM |
| --- | --- | --- |
| AGUAUGUAAUAUGGCAUAUUUAGAACUGAAGGAGCGCCGAAUAAGGCAGGUAGGUCGCGGAAUCAUGAGUGAUGUUCAUGACUAU [KL-SSArg-A26] | K4 kissing-loop RNA reporter | 126 |
| GUUACGCAUGGAAGGAGCGCACUCCGAUUGGGCGACACAGUGAUGUUGUGGUUCGUUCGAAUGCAGGUAGGUCGCCAUGUGUAAC [Ex Arginine B K4 20] | K4 kissing-loop RNA reporter | 153 |
| AGGUACAAAAGUACCGCUAGAUCCACGGAAGGAGCGCCCGAAAGGGCAGGUAGGUCGCCGGGCAGUGAUGUUGCCGGAUCUAGCA [Omei KL Arginine A SS A v6] | K4 kissing-loop RNA reporter | 181 |
| CAUAGGAAACUAUGUUUCUCUCUUACUGAAGGAGCGCGUGAAAACGCAGGUAGGUCGCAGAAUUUGAGAGUGAUGUUCUCAAUAA [Ex Arginine A K4 13] | K4 kissing-loop RNA reporter | 167 |
| GGAUGGUAGGCGGCCGCCACUAAAUGUGAACACAUACAAGCCAGUGAUGUUGGUAUGAUGGACAAUAGGACCGGGCCUAGAUAGA [Exclusion - Tryptophan B (Freestyle 7)] | K4 kissing-loop RNA reporter | 495 |
| AAGCAGUCACUCGCAGCCAUCGAAGAUGGGCGAGGACCGGUACGGCCGCCACUCGGAGUGAUGUUCCGCAGACUGCAAAAUAAAA | K4 kissing-loop RNA reporter | 437 |
| UGCCCGCGCGAAGGAUAUGAGAGCUUGUCUGUCCAGUGAUGUUGGAGGUUGGUGAUUUGCUAGGCGUCAGAAGGUCGAGCUUAUA [theeternabot_sameState_KL_FMN_B_14] | K4 kissing-loop RNA reporter | 150 |
| ACUGGAAUUGUACUCCAGUGAUGUUGGAGGCAGGAUAUCCAGUAAAGGAGAAGGGCCAUCGCGCUAUUUAGCCGCAGGCGGCUAA [Atrilazaed] | K4 kissing-loop RNA reporter | 136 |
| UCUCCAGUGAUGUUGGAGACGGAUGAGGAAGGAGCGGGCACGUGCCCAGGUAGGUCGCCUCGAAAGCCCUGUAGCAUCGCGAAAC [Disoribe] | K4 kissing-loop RNA reporter | 193 |
| ACCAUCAAAGAUGGCCUCGACACCGCUGAUACCAGAGUGAAAACACUCCCUUGGCAGCAGGUGAGUGAUGUUCACAGUCGAAGGA [Omel KL Theo A SS B v1] | K4 kissing-loop RNA reporter | 538 |
| GGAUAGGACAGAGGAUAUGGGCUAGGCAAGAAUAACUUGUCUAGCAAAUCCAUGAGGAGUGAUGUUCCAGAAGGCUGUCCUAUCG [FmnBX 1 - #SwitchBubble #StraticStem #DoubleMagnetSystem] | K4 kissing-loop RNA reporter | 177 |
| UUUAUAUAGUCGGCCGCCACUGAUUUUUUUAUAUGUUUAUGUUUAUACGAGUGAUGUUCGAUAUACAGGACCGGGACUUUGGUUA [JR_SSTryptoB_Sub019] | K4 kissing-loop RNA reporter | 224 |
| UGAUAGGACAGAAGGAGCGGGAGUGAUGUUCCCAAAGGAAGGUCUAGCAAAGCUGGACCCUCCCAGGUAGGUCGCUGUCCUAUCU [ArgBX 4 #SwitchBubble #StaticStem] | K4 kissing-loop RNA reporter | 155 |
| GUGCGGCUAGUGAUGUUGGUUGCGUGGGAAGGAGCGCAGAAACAUGCAGGUAGGUCGCCCACAUCUCUGAUAAAAGAUUAAUUCA [Riares] | K4 kissing-loop RNA reporter | 338 |
| GGGAGUAGUGCGGCCGCCACUGUGAGGGAAGAAGAAUAUAGUGAUGUUAUAUAGGAAGGGAAGAAUAGGACCGGGCAUUAGAUUU [SSTRyptB.aB] | K4 kissing-loop RNA reporter | 230 |
| UCUGGAGCAUAUGAUACCAGCAGUGAGAGAGAGGAAGUAUAGUGAUGUUAUAUGAGAGAAUGCCCUUGGCAGCGUGUGUAGUGGG [SSTheophylB.M] | K4 kissing-loop RNA reporter | 94.5 |
| UCUCAGGAGUGAUGUUCCGUAGGUGGAAGGAAGGAUAUCUAAUGGCAGAGAAGGUCCAUCCUUGCUCGUAUCAGUGCCGGGAAGC [theeternabot_exclusion_KL_FMN_A_13] | K4 kissing-loop RNA reporter | 304 |
| ACGUCCGGGUUAAUCGUGGGCGUGGUGGAUACCAGUUCUUUAAUGAACCCUUGGCAGCCACAUGAGUGAUGUUCAUGUGCGAUGA [KL-XTheo-A10 #analogue] | K4 kissing-loop RNA reporter | 98.2 |
| UGUCAUUGGUCUGAUACCAGUUGAUAAACUGGAGUGAUGUUCCUCGACGAAUACGUCGACAACCCUUGGCAGCAGACCGAUGACU [TheoBS 14 #SwitchBubble 13 #StaticStem] | K4 kissing-loop RNA reporter | 354 |
| AAGCGUGUCGCGGCCGCCACUCCUGAGUGAUGUUCAGAAAGCAGUUUUUUAUUCAGGAAAAGCGCGAGGACCGGGCGACGCCGAU [theeternabot_sameState_KL_Trp_B_1] | K4 kissing-loop RNA reporter | 328 |
| AAAUUUAAUAUAUUUAAAUAAAUAUGUGAUACCAGACAUUUAUAAGUCCCUUGGCAGCACAAUGCAGUGAUGUUGCUUAUAAUAA [JR_SSTheophyA_Sub017] | K4 kissing-loop RNA reporter | 192 |
| AGACGUUUGGGAAGGAGCGGAAUGUAAUACGGAACGCGUGGAGGUGCAGUGAUGUUGCAGAUCCAGGUAGGUCGCCCAAGGGACG [Esenraerve] | K4 kissing-loop RNA reporter | 137 |
| CCGAAGAACCAGUGAUGUUGGUUGACUAGACAGGAUAUGAGCAACAUCAGAAGGGUCUGGCUUCGGGAGUGAGUCGCGCUGACUU [Reverigeed] | K4 kissing-loop RNA reporter | 254 |

Where these numbers come from: the supplement of paper PMC9170038
